EXPERIMENT_NOTES: Stability of cannabinoid and Vitamin E components of Beverage 1 (AB White) stored at 8° C. and 21-25° C., LCMSMS over 570 days
Format: physicochemical
EXPERIMENTAL_CONTEXT: beverage stored at 21-25° C., day 25
Category scheme (Stability in AB White, 21-25° C. (content by LCMSMS)): low-valued (below 0.5 µg/mL), mid-valued (0.5 µg/mL to below 4 µg/mL), high-valued (4 µg/mL or more)

[
  {
    "COMPOUND": "C=C(C)[C@@H]1CCC(C)=C[C@H]1c1c(O)cc(CCCCC)c(C(=O)O)c1O",
    "ASSIGNED_LABEL": "mid-valued"
  },
  {
    "COMPOUND": "CCCCCc1cc(O)c2c(c1)OC1(C)CCC3C1C2C3(C)C (stereo not drawn)",
    "ASSIGNED_LABEL": "mid-valued"
  },
  {
    "COMPOUND": "CCCCCc1cc(O)c2c(c1)OC(C)(C)c1ccc(C)cc1-2",
    "ASSIGNED_LABEL": "mid-valued"
  },
  {
    "COMPOUND": "CCCCCc1cc(O)c(C/C=C(\\C)CCC=C(C)C)c(O)c1",
    "ASSIGNED_LABEL": "high-valued"
  },
  {
    "COMPOUND": "CCCCCc1cc(O)c2c(c1)OC(C)(CCC=C(C)C)C=C2 (stereo not drawn)",
    "ASSIGNED_LABEL": "low-valued"
  }
]

Categorize the following entry: CCCCCc1cc(O)c2c(c1)OC(C)(C)[C@@H]1CCC(C)=C[C@@H]21 [D9 THC, delta-9-tetrahydrocannabinol, reference compound]
high-valued

One more compound: CCCCCc1cc2c(c(O)c1C(=O)O)[C@@H]1C=C(C)CC[C@H]1C(C)(C)O2 [D9 THCA, delta-9-tetrahydrocannabinolic acid]
mid-valued

One more compound: C=C(C)[C@@H]1CCC(C)=C[C@H]1c1c(O)cc(CCC)cc1O
low-valued

One more compound: CCCc1cc(O)c2c(c1)OC(C)(C)[C@@H]1CCC(C)=C[C@@H]21 [THCV, delta-9-tetrahydrocannabivarin]
mid-valued

// data source = patent US20240415914A1
